Assign CC50 to each entry below.
Test: in vitro
Type: cell-based
Settings: human, cem cells, CC50 (50% cytostatic concentration), Table 2B; CEM cell proliferation; averages of 2 to 3 independent experiments

>>> test_value("Cc1occc1C(=S)Nc1ccc(Cl)c(C=NOC(C)(C)C)c1")
"5.8 µg/mL"
>>> test_value("Cc1sccc1C(=S)Nc1ccc(Cl)c(C(=O)OC(C)C)c1")
"5.9 µg/mL"
>>> test_value("CC=CCSc1cc(NC(=S)c2ccsc2C)ccc1Cl")
"5.1 µg/mL"
>>> test_value("C=C(Cl)COc1cc(NC(=S)c2ccsc2C)ccc1C#N")
"3.3 µg/mL"

Would you mind giving CC50 for every compound in the list below?
1. Cc1occc1C(=S)Nc1ccc(Cl)c(C(=O)OCC(C)C)c1
2. Cc1ccccc1C(=S)Nc1ccc(Cl)c(C(=O)OC(C)C)c1
3. Cc1occc1C(=S)Nc1ccc(Cl)c(C(=O)OCC2CC2)c1
4. CC1=C(C(=O)Nc2ccc(Cl)c(C(=O)OC(C(C)C)C(C)C)c2)SCCO1

Data returned:
1: 8.5 µg/mL; 2: 5.8 µg/mL; 3: 6.7 µg/mL; 4: 5.8 µg/mL

* * *

Tested on: HIV-1/106-Ala
Test: Inhibition of HIV-1 induced syncytium formation in CEM cells, RT mutant 106-Ala
Format: cell-based
Details: Human immunodeficiency virus 1, CCRF-CEM, 96 h, Table 2B, day 4, averages of 2 to 3 independent experiments, read-out: Antiviral Activity of Comparative Compounds EC50, 106-Ala
Parameter Measured: EC50 (µg/mL)
Answers are plain numbers, in µg/mL.

Look over these answered cases.
>>> test_value("CCOC(=O)c1cc(NC(=S)c2ccoc2C)ccc1C")
0.7
>>> test_value("Cc1ccoc1C(=S)Nc1ccc(Cl)c(C=NOC(C)C)c1")
0.5
>>> test_value("Cc1sccc1C(=O)Nc1ccc(Cl)c(C=NOC(C)(C)C)c1")
1.6
>>> test_value("Cc1occc1C(=S)Nc1ccc(Cl)c(C=NOC2CCCC2)c1")
0.085
>>> test_value("Cc1occc1C(=O)Nc1ccc(Cl)c(COC(C)(C)C)c1")
5.5
>>> test_value("Cc1occc1C(=S)Nc1ccc(Cl)c(C(=O)OC2CCCC2)c1")
0.04
>>> test_value("Cc1ccoc1C(=S)Nc1ccc(Cl)c(C(=O)OC(C)C)c1")
1
>>> test_value("Cc1occc1C(=S)Nc1ccc(Cl)c(COC(C)(C)C)c1")
0.29

Measured EC50 of C=CCOc1cc(NC(=S)c2ccoc2C)ccc1C#N : 0.45

* * *

Tested on: HIV-1(IIIB)
Experiment: Inhibition of HIV-1 induced syncytium formation in CEM cells, wild type
Assay type: cell-based
Conditions: Table 2B, WT = HIV-1(IIIB), day 4, averages of 2 to 3 independent experiments
Parameter Measured: Antiviral Activity of Comparative Compounds EC50, WT

>>> test_value("Cc1sccc1C(=S)Nc1ccc(Cl)c(C(=O)OC2CCCCC2)c1 [Compound 9]")
"0.0032 µg/mL"
>>> test_value("Cc1occc1C(=S)Nc1ccc(Cl)c(C=NOC(C)(C)C)c1 [Compound 3]")
"0.0065 µg/mL"
>>> test_value("Cc1sccc1C(=S)Nc1ccc(Cl)c(C(=O)OC2CCCCC2)c1 [Compound 59]")
"0.09 µg/mL"

Would you mind giving Antiviral Activity of Comparative Compounds EC50, WT for every molecule in the list below?
1. Cc1sccc1C(=O)Nc1ccc(Cl)c(C(=O)OC2CCCCC2)c1 [Compound 58]
2. Cc1occc1C(=S)Nc1ccc(Cl)c(C=NOC(C)(C)C)c1 [Compound 114]
3. Cc1sccc1C(=O)Nc1ccc(Cl)c(C(=O)OC2CCCCC2)c1 [Compound 23]

Data returned:
1. 0.19 µg/mL
2. 0.05 µg/mL
3. 0.03 µg/mL
